All figures here come from the Kinase Knowledgebase extract (Sharma et al. 2016).

Target: PIK3CA (human)
Test: Enzyme Assay
experimental-readout: log10 of IC50 (log10 of the value in µM)

> print(dat)
                               smiles.record  experimental.readout  observed
 1  CN(C)n1c([C@@H]2CCCN2c2ncnc(N)c2C#N)nc2cccc(Cl)c2c1=O         log10 of IC50      0.04
 2  N#Cc1c(N)ncnc1N1CCC[C@H]1c1nc2cccc(C(F)(F)F)c2c(=O)n1-c1cccc(F)c1         log10 of IC50      0.75
 3  CO[C@H]1C[C@@H](c2nc3cccc(Cl)c3c(=O)n2-c2ccccc2)N(c2nc(N)nn3ccnc23)C1         log10 of IC50      0.86
 4  Cc1nc(N)nc(N2C[C@@H](O)C[C@H]2c2nc3ccc(F)c(F)c3c(=O)n2-c2ccccc2)c1C#N         log10 of IC50     -0.15
 5  O=c1c2c(Cl)cccc2nc([C@@H]2CCCN2c2ncnn3ccnc23)n1-c1ccccc1         log10 of IC50      0.67
 6  O=c1c2c(Cl)cccc2nc([C@@H]2CCCN2c2ncnc3scnc23)n1-c1ccccc1         log10 of IC50      0.71
 7  Cc1c(F)ccc2nc([C@@H]3CCCN3c3ncnc(N)c3C#N)n(-c3ccccc3)c(=O)c12         log10 of IC50     -0.15
 8  CN(C)n1c([C@@H]2CCCN2c2ncnc3[nH]cnc23)nc2cccc(Cl)c2c1=O         log10 of IC50      0.30
 9  Nc1nc(N2CCC[C@H]2c2nc3cccc(Cl)c3c(=O)n2C2CC2)c2nc[nH]c2n1         log10 of IC50      0.56
10  Nc1nc(N2CCC[C@H]2c2nc3cccc(Cl)c3c(=O)n2N2CCOCC2)c2nccn2n1         log10 of IC50      0.41
11  Cc1ccccc1-n1c([C@@H]2CCCN2c2ncnc(N)c2C#N)nc2cccc(Cl)c2c1=O         log10 of IC50      0.72
12  N#Cc1c(N)ncnc1N1C[C@@H](F)C[C@H]1c1nc2cccc(C(F)(F)F)c2c(=O)n1-c1ccccc1         log10 of IC50      0.38
13  O=c1c2c(Cl)cccc2nc([C@@H]2CCON2c2ncnc3scnc23)n1-c1ccccc1         log10 of IC50      0.18
14  Nc1nc(N2C[C@@H](F)C[C@H]2c2nc3cccc(C(F)(F)F)c3c(=O)n2-c2cccnc2)c2nc[nH]c2n1         log10 of IC50      0.64
15  Cc1nc(N)nc(N2C[C@@H](O)C[C@H]2c2nc3cccc(Cl)c3c(=O)n2-c2ccccc2)c1C#N         log10 of IC50     -0.44
16  CO[C@H]1C[C@@H](c2nc3cccc(Cl)c3c(=O)n2-c2ccccc2)N(c2nc(N)nc(C)c2C#N)C1         log10 of IC50     -0.25
